# target desc: T1, human activated protein C (human, UniProt P04070 43-197; P04070 212-461)
# T1 construct: In the plasma assays aPC is generated in human plasma with Protac; also called aPC; haPC
# assay: direct antigen coating ELISA (KD ELISA) of Fab periplasmic extract, anti-c-myc HRP

binder	Bmax
HAPC-14-R1-3H4-C6 (Fab, V domains shown, Single-site mutant Fab of HAPC-14) VH: EVQLVESGGGLVQPGGSLRLSCAASGFTFSNYYLNWVRQAPGKGLEWVGDIRLKSNNYEKHYAESVKGRFTISRDDSKSITYLQMNSLRAEDTAVYYCAREGDTFDYWGQGTTVTVSS VL: DIQLTQSPSSLSASVGDRVTITCRASESVDSFGATFMHWYQQKPGKAPKLLIYLASNLESGVPSRFSGSGSGTDFTLTISSLQPEDFATYYCQQNNEDPYTFGQGTKLEIK	0.325
HAPC-14-R1-3L1-G8 (Fab, V domains shown, Single-site mutant Fab of HAPC-14) VH: EVQLVESGGGLVQPGGSLRLSCAASGFTFSNYYLNWVRQAPGKGLEWVGDIRLKSNNYEKHYAESVKGRFTISRDDSKSITYLQMNSLRAEDTAVYYCAREGDYFDYWGQGTTVTVSS VL: DIQLTQSPSSLSASVGDRVTITCRASESVDSFGATFMHWYQQKPGKAPKLLIYLASNLESGVPSRFSGSGSGTDFTLTISSLQPEDFATYYCVQNNEDPYTFGQGTKLEIK	0.24
HAPC-14-R1-2L4-A1 (Fab, V domains shown, Single-site mutant Fab of HAPC-14; inferred from the clone name (2L4, same site as N57R/W)) VH: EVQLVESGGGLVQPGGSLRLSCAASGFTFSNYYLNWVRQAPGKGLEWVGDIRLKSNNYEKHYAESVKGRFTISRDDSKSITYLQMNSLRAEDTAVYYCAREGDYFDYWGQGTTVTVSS VL: DIQLTQSPSSLSASVGDRVTITCRASESVDSFGATFMHWYQQKPGKAPKLLIYLASLLESGVPSRFSGSGSGTDFTLTISSLQPEDFATYYCQQNNEDPYTFGQGTKLEIK	0.244
